Cited source for all entries: patent US10526345B2

# activation at 1 µM annotations
- EXPERIMENTAL TARGET: hGPR119 (Homo sapiens, UniProt Q8TDV5)
- Construct: expressed in transfected cells; host or cells: CHO
- Sequence (Q8TDV5 1-335): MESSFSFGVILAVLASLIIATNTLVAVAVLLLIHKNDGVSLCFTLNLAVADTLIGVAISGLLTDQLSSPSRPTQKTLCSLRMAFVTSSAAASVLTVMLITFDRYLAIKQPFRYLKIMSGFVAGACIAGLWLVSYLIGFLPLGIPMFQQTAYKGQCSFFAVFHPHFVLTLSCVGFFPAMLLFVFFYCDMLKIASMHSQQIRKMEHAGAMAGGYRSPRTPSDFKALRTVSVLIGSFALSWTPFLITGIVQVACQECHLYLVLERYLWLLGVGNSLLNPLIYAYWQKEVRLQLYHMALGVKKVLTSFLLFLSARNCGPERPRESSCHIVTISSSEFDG
- ASSAY NAME: In vitro cyclic AMP assay (Cisbio dynamic 2 HTRF kit) in CHO-hGPR119 cells
- Assay type: cell-based
- SETUP CONDITIONS: 1 h, cAMP, compound at 1 μM, 60 min, read-out: Induction (% induction at 1 μM)
The response must be a number in % with no trailing unit.

- Cc1nc(S(C)(=O)=O)ccc1-c1ccc2nc(OC(C)C3CCN(c4nc(C(C)C)no4)CC3)sc2n1 (stereo in doubt): 22
- CC(C)c1noc(N2CCC([C@@H](C)Oc3nc4ccc(-c5ccc(S(C)(=O)=O)nc5)nc4s3)C2)n1 (stereo partly drawn): 4
- CC(C)c1noc(N2CCC(C(C)Oc3nc4ccc(-c5ccc(S(C)(=O)=O)c(F)c5)nc4s3)CC2)n1 (stereo not drawn): 65
- CC(C)c1noc(N2CCC(OC(C)c3nc4ccc(-c5ccc(S(C)(=O)=O)cc5)nc4s3)CC2)n1 (stereo not drawn): 5
- CC(C)OC(=O)Oc1nc2ccc(-c3ccc(S(C)(=O)=O)cc3)nc2s1: 0
- CC(C)c1noc(N2CCC(Oc3nc4ccc(-c5ccc(S(C)(=O)=O)cc5)nc4s3)C(F)C2)n1 (stereo not drawn): 39
- CC(C)c1noc(N2CCC(C(Oc3nc4ccc(-c5ccnc(F)c5)nc4s3)C(F)(F)F)CC2)n1 (stereo not drawn): 63
- COCCNS(=O)(=O)c1ccc(-c2ccc3nc(OC(C)C4CCN(c5nc(C(C)C)no5)CC4)sc3n2)cc1 (stereo not drawn): 30

For record "CC(C)c1noc(N2CCC(COc3nc4ccc(-c5ccnc(F)c5)nc4s3)CC2)n1" the listed activation at 1 µM is 2

Memo: CNS(=O)(=O)c1ccc(-c2ccc3nc(OC(C)C4CCN(c5nc(C(C)C)no5)CC4)sc3n2)cc1 (stereo not drawn) , reported activation at 1 µM: 48

Entry "CC(C)c1noc(N2CC[C@@H](COc3nc4ccc(-c5ccc(S(C)(=O)=O)cc5)nc4s3)[C@@H](F)C2)n1" ; activation at 1 µM = 10

The value of activation at 1 µM measured for the compound "CN(C)C(=O)N1CC=C(c2nc3ccc(-c4ccc(S(C)(=O)=O)cc4)nc3s2)CC1" turned out to be 3

Given item "CC(C)OC(=O)N1CCC(N(C)c2nc3ccc(-c4ccc(S(C)(=O)=O)cc4)nc3s2)CC1" , the value recorded as its activation at 1 µM is 0

Note to self: activation at 1 µM recorded for "CC(C)c1noc(N2CCC([C@H](C)Oc3nc4ccc(-c5ccc(S(C)(=O)=O)cc5)nc4s3)CC2)n1" was 76

The recorded activation at 1 µM for CC(C)c1noc(N2CCC(C(C)Oc3nc4ccc(-c5ccc(S(C)(=O)=O)cn5)nc4s3)CC2)n1 (stereo not drawn) is 69
